Assay procedure: qHTS assay to identify aromatase inhibitors - cell viability counter screen (AID 743084);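 further: cells stimulated with testosterone during compound exposure; nearly all actives have a fitted effect of over 55% in size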
Run parameters: MCF-7 aro ERE viability, CellTiter-Fluor, 24 h; series mostly up to 70.3 µM
Results filed as inconclusive are left out. Activity calls are given as the source filed them. The call rests on the fitted dose curve; in most records, active means well fitted cell-killing curve with a large enough effect in the repeat runs; inconclusive means weak or mixed curves, or effect the other way; inactive means no such curve, though single readings can be large or run the other way.
Classes used: active, inactive

[[record]]
compound_structure = "CCCCCCCCCCCCCCCCCC[N+](C)(C)C"
classification = "active"

[[record]]
compound_structure = "CCCCCCCCOc1ccccc1C(=O)Nc1ccc(C(=O)OCC[N+](C)(CC)CC)cc1"
classification = "inactive"

[[record]]
compound_structure = "Oc1cccc2cc3cccc(O)c3c(O)c12"
classification = "inactive"

[[record]]
compound_structure = "CN(C)c1ccc(SC#N)cc1"
classification = "inactive"


* * *

Assay procedure: qHTS assay to identify small molecule antagonists of the estrogen receptor alpha (ER-alpha) signaling pathway - cell viability counter screen (AID 743074);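 further: HEK293 cells carrying ER-alpha-UAS-bla reporter stimulated with 17beta-estradiol; nearly all actives have a fitted effect of over 45% in size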
Run parameters: ERalpha-bla HEK293 viability, CellTiter-Glo luminescence, 18 h; series mostly up to 69.4 µM
Results filed as inconclusive are left out. The source made the active and inactive calls. Calls follow the shape of the full dose curve.
Classes used: t = active, f = inactive

[[record]]
compound = "Cn1cc(C(=O)[C@@H]2CCc3nc[nH]c3C2)c2ccccc21"
classification = "f"

[[record]]
compound = "Cc1[nH]cnc1C[C@H]1CCc2c(C)c3ccccc3n2C1=O"
classification = "f"

[[record]]
compound = "CN(C)C(=O)C1(N2CCCCC2)CCN(CC[C@@]2(c3ccc(Cl)c(Cl)c3)CN(C(=O)c3ccccc3)CCO2)CC1"
classification = "t"

[[record]]
compound = "NC(=O)N1C(=O)C(C(=O)c2cc(Cl)cs2)c2cc(F)c(Cl)cc21 (stereo unspecified)"
classification = "t"

[[record]]
compound = "CC(C)(C)c1ccc(C(=O)CCCN2CCC(OC(c3ccccc3)c3ccccc3)CC2)cc1"
classification = "t"

[[record]]
compound = "Oc1cccc2cc3cccc(O)c3c(O)c12"
classification = "f"

[[record]]
compound = "CCCCC(CC)COP(=O)(O)OCC(CC)CCCC (stereo unspecified)"
classification = "t"

[[record]]
compound = "COc1cc(-c2ccc(N=C=O)c(OC)c2)ccc1N=C=O"
classification = "f"

[[record]]
compound = "CCCCCCCCOc1ccccc1C(=O)Nc1ccc(C(=O)OCC[N+](C)(CC)CC)cc1"
classification = "f"

[[record]]
compound = "O=C(O)c1c(Cl)cccc1Cl"
classification = "f"

[[record]]
compound = "Nc1ccc(N)c2ccccc12"
classification = "t"


* * *

Assay procedure: Caspase-3/7 induction in HepG2 cells by small molecules, qHTS cell viability counter screen (AID 1346981); further: nearly all actives have a fitted effect of over 30% in size
Run parameters: CellTiter-Fluor fluorescence, 17 h; series mostly up to 92.4 µM
Records with an inconclusive call do not appear. Calls of active or inactive are those of the source. The call rests on the fitted dose curve; in most records, active means well fitted cell-killing curve with a large enough effect in the repeat runs; inconclusive means weak or mixed curves, or effect the other way; inactive means flat fitted curve, though single readings scatter.
Classes used: active, inactive

[[record]]
compound = "CCc1cc(Cc2cc(CC)cc(C(C)(C)C)c2O)c(O)c(C(C)(C)C)c1"
classification = "active"

[[record]]
compound = "CC(C)=CCOc1ccc(/C=C/C(=O)c2ccc(OCC=C(C)C)cc2OCC(=O)O)cc1"
classification = "inactive"

[[record]]
compound = "Cc1nc(-c2ccc3c(c2)CCN(CCC2CCC(NC(=O)/C=C/c4ccc(F)cc4)CC2)CC3)no1 (stereo unspecified)"
classification = "inactive"

[[record]]
compound = "Nc1cc(C(F)(F)F)ccc1S"
classification = "inactive"

[[record]]
compound = "COc1ccc(CN2CCN(C(c3ccc(F)cc3)c3ccc(F)cc3)CC2)c(OC)c1OC"
classification = "active"

[[record]]
compound = "O=C(Oc1ccccc1)c1ccccc1C(=O)Oc1ccccc1"
classification = "inactive"

[[record]]
compound = "N#CSc1ccc(N)c([N+](=O)[O-])c1"
classification = "active"

[[record]]
compound = "CCCC/C=C/CCCCO"
classification = "inactive"

[[record]]
compound = "CN(C)[C@@H]1C(=O)C(C(N)=O)=C(O)[C@@]2(O)C(=O)C3=C(O)c4c(O)ccc(Cl)c4[C@@H](O)[C@H]3C[C@@H]12"
classification = "inactive"

[[record]]
compound = "CCCCN1CCCC[C@H]1C(=O)Nc1c(C)cccc1C"
classification = "inactive"

[[record]]
compound = "C/C=C(\\C)C(=O)OCc1ccccc1"
classification = "inactive"


* * *

System tested: Luciferin 4-monooxygenase (Photinus pyralis) (UniProt P08659)
Sequence (P08659 whole entry, looked up): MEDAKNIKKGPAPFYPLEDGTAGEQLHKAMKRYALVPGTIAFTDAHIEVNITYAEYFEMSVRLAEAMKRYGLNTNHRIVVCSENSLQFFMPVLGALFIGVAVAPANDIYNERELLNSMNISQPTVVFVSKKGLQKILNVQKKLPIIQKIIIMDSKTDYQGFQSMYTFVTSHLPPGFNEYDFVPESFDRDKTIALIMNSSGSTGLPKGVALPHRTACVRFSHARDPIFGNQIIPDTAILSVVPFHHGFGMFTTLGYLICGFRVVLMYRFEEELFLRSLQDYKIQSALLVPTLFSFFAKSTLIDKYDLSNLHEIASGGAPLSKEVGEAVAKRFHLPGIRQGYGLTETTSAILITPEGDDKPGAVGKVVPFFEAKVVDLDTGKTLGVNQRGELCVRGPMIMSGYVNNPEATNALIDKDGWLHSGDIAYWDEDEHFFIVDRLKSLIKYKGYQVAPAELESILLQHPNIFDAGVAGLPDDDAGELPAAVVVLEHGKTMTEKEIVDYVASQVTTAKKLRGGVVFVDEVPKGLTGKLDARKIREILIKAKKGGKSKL
Assay procedure: qHTS assay to identify small molecule inhibitors of firefly luciferase (AID 1224835); further: nearly all actives have a fitted effect of over 25% in size
Run parameters: purified P. pyralis luciferase, luminescence inhibition; series mostly up to 115 µM
Text: U.S. Tox21 Program National Center for Advancing Translational Sciences [NCATS] NIH Chemical Genomics Center [NCGC] U.S. Environmental Protection Agency [EPA] National Institutes of Environmental Health Sciences [NIEHS] National Toxicology Program [NTP] U.S. Food and Drug Administration [FDA] Tox21 Assay Overview: Firefly (Photinus pyralis) luciferase is one of the most commonly used transcriptional reporters. […]
Records with an inconclusive call do not appear. The source made the active and inactive calls. Calls come from the whole dose curve; as a rule, active = well fitted inhibition curve with a large enough effect in the repeat runs; inconclusive = weak or mixed curves; inactive = flat fitted curve, though single readings scatter.
Classes used: Yes (active), No (inactive)

[[record]]
compound_structure = "O=C(Oc1ccccc1)c1ccccc1C(=O)Oc1ccccc1"
classification = "No"

[[record]]
compound_structure = "CC1(C)CCC(C)(C)c2cc(C(=O)Nc3ccc(C(=O)O)cc3)ccc21"
classification = "Yes"

[[record]]
compound_structure = "OC1(c2ccc(Cl)c(C(F)(F)F)c2)CCN(CCCC(c2ccc(F)cc2)c2ccc(F)cc2)CC1"
classification = "No"

[[record]]
compound_structure = "CN(C)C(=O)C1(N2CCCCC2)CCN(CC[C@@]2(c3ccc(Cl)c(Cl)c3)CN(C(=O)c3ccccc3)CCO2)CC1"
classification = "No"

[[record]]
compound_structure = "CCCCc1oc2ccc(NS(C)(=O)=O)cc2c1C(=O)c1ccc(OCCCN(CCCC)CCCC)cc1"
classification = "No"

[[record]]
compound_structure = "C[C@]12CCC(=O)C=C1CC[C@@H]1[C@@H]2[C@@H](O)C[C@@]2(C)[C@H]1CC[C@]2(O)C(=O)COC(=O)CCC(=O)O"
classification = "No"

[[record]]
compound_structure = "Fc1ccc([C@@H]2CCNC[C@H]2COc2ccc3c(c2)OCO3)cc1"
classification = "No"

[[record]]
compound_structure = "O=c1[nH]sc2ccccc12"
classification = "Yes"

[[record]]
compound_structure = "C[C@@H](NCCCc1cccc(C(F)(F)F)c1)c1cccc2ccccc12"
classification = "No"

[[record]]
compound_structure = "C[n+]1cc2c3c(ccc2c2ccc4cc5c(cc4c21)OCO5)OCO3"
classification = "Yes"


* * *

Assay procedure: qHTS assay to identify small molecule agonists of the estrogen receptor beta (ER-beta) signaling pathway - cell viability counter screen (AID 1259380); further: nearly all actives have a fitted effect of over 30% in size
Run parameters: ER-beta-bla HEK293T viability, CellTiter-Glo luminescence, 16 h; series mostly up to 92.4 µM
Inconclusive results are not listed. Active and inactive are the calls of the source. The call rests on the fitted dose curve; in most records, active means well fitted cell-killing curve with a large enough effect in the repeat runs; inconclusive means weak or mixed curves, or effect the other way; inactive means flat fitted curve, though single readings scatter.
Classes used: YES = active, NO = inactive

[[record]]
compound = "O=C(O)c1c(Cl)cccc1Cl"
classification = "NO"

[[record]]
compound = "O=C1c2c(O)ccc(Nc3ccc(CCO)cc3)c2C(=O)c2c([N+](=O)[O-])ccc(O)c21"
classification = "YES"

[[record]]
compound = "Oc1cccc2cc3cccc(O)c3c(O)c12"
classification = "NO"

[[record]]
compound = "CCCCCCCC[N+](CCCCCCCC)(CCCCCCCC)CCCCCCCC"
classification = "YES"

[[record]]
compound = "CC1=C(C(=O)OC(C)C)C(c2cccc([N+](=O)[O-])c2)C(C(=O)OC2CN(C(c3ccccc3)c3ccccc3)C2)=C(N)N1 (stereo not given)"
classification = "YES"

[[record]]
compound = "O=C(NO)C1(NS(=O)(=O)c2ccc(Oc3ccc(F)cc3)cc2)CCOCC1"
classification = "NO"

[[record]]
compound = "[O-][n+]1ccccc1SSc1cccc[n+]1[O-]"
classification = "YES"

[[record]]
compound = "CC(C)C(C)(C)C(C)(C)C(C)(C)S"
classification = "NO"

[[record]]
compound = "C=CC(=O)OCC(CO)(COCC(COC(=O)C=C)(COC(=O)C=C)COC(=O)C=C)COC(=O)C=C"
classification = "YES"

[[record]]
compound = "CCCCc1oc2ccc(NS(C)(=O)=O)cc2c1C(=O)c1ccc(OCCCN(CCCC)CCCC)cc1"
classification = "YES"

[[record]]
compound = "CCCCCCCCn1sc(Cl)c(Cl)c1=O"
classification = "YES"

[[record]]
compound = "C=C(C)C(=O)OCC[N+](C)(C)C"
classification = "NO"

[[record]]
compound = "CC(C)c1ccc2c(c1)CC[C@H]1[C@](C)(CN)CCC[C@]21C"
classification = "YES"

[[record]]
compound = "Cc1cc(O)c(C(C)(C)C)cc1C(C)(C)C"
classification = "YES"

[[record]]
compound = "CCOC(=O)c1nc(C(Cl)(Cl)Cl)n(-c2ccc(Cl)cc2Cl)n1"
classification = "YES"

[[record]]
compound = "NC(=O)NS(=O)(=O)c1ccc(N)cc1"
classification = "NO"

[[record]]
compound = "Cc1cc(O)c2ccccc2c1O"
classification = "YES"

[[record]]
compound = "O=[N+]([O-])c1cc(Cl)c(Cl)c(Cl)c1Cl"
classification = "NO"

[[record]]
compound = "CC(=O)SC[C@@H](Cc1ccccc1)C(=O)NCC(=O)OCc1ccccc1"
classification = "NO"

[[record]]
compound = "CNCc1cc(F)ccc1Oc1ccc(Cl)c(Cl)c1"
classification = "YES"

[[record]]
compound = "Cc1cc(N)c(S(=O)(=O)O)cc1Cl"
classification = "NO"

[[record]]
compound = "NNc1nc(-c2ccccc2)cs1"
classification = "YES"

[[record]]
compound = "Nc1c(Cl)cc(Cl)cc1Cl"
classification = "NO"

[[record]]
compound = "O=c1[nH]cnc2nc[nH]c12"
classification = "NO"

[[record]]
compound = "CCN(CC)CCCC(C)Nc1c2ccc(Cl)cc2nc2ccc(OC)cc12 (stereo not given)"
classification = "YES"

